Tested on: S180 tumor cells
assay.info: MTT cell viability assay, S180 tumor cells
Type: cell-based, murine
setup.conditions: S180 tumor cell line, 48 h
Procedure: The murine sarcoma-180 tumor cells (S180) (ATCC# TIB-66) and normal murine fibroblast cells (L-929) (ATCC# CCL-1) were cultured in suspension in RPMI 1640 and DMEM media (Sigma Chemical Co., MO), respectively, supplemented with 10% fetal calf serum, 100 µg/mL penicillin, and 100 µg/mL streptomycin. […] The cytotoxic effects of the amino acid ruthenium complexes were evaluated using an MTT assay with S180 tumor cells and L929 normal cells as described previously. […]
value.kind: IC50 (µM)

Observe how each entry below is paired with its result.
F[P-](F)(F)(F)(F)F.NCC(=O)[O-].[Ru+2].c1ccc(-c2ccccn2)nc1.c1ccc(P(CCCCP(c2ccccc2)c2ccccc2)c2ccccc2)cc1 [Complex 2, [Ru(gly)(bipy)(dppb)]PF6] = 31.2
N.N.[Cl][Pt][Cl] [Cisplatin, cisplatin, reference compound] = 64.8
F[P-](F)(F)(F)(F)F.F[P-](F)(F)(F)(F)F.N[C@@H](CC(=O)O)C(=O)O.[Ru+2].c1ccc(-c2ccccn2)nc1.c1ccc(P(CCCCP(c2ccccc2)c2ccccc2)c2ccccc2)cc1 [Complex 4, [Ru(aspac)(bipy)(dppb)](PF6)2] = 42.2
C[C@H](N)C(=O)[O-].F[P-](F)(F)(F)(F)F.[Ru+2].c1ccc(-c2ccccn2)nc1.c1ccc(P(CCCCP(c2ccccc2)c2ccccc2)c2ccccc2)cc1 [Complex 5, [Ru(ala)(bipy)(dppb)]PF6] = 50.2

A: CC(C)C[C@H](N)C(=O)[O-].F[P-](F)(F)(F)(F)F.[Ru+2].c1ccc(-c2ccccn2)nc1.c1ccc(P(CCCCP(c2ccccc2)c2ccccc2)c2ccccc2)cc1 [Complex 3, [Ru(leu)(bipy)(dppb)]PF6]
B: CSCC[C@H](N)C(=O)[O-].F[P-](F)(F)(F)(F)F.[Ru+2].c1ccc(-c2ccccn2)nc1.c1ccc(P(CCCCP(c2ccccc2)c2ccccc2)c2ccccc2)cc1 [Complex 1, [Ru(met)(bipy)(dppb)]PF6]
I need your help: which of the pair A , B has higher IC50? Please reply using the label of the selected record.
A
(A: 38.2 µM, B: 22.5 µM)
